- Tested on: Huh-7
- METHOD_SUMMARY: Cytotoxicity against human Huh-7 cells assessed as reduction in cell viability by alamar blue reagent based analysis
- Type: functional
MEASUREMENT_KIND: CC50

Summary: COc1cc(-c2cnc3nc2NCCCNS(=O)(=O)c2cccc(c2)N3)c(F)cc1F , Huh-7, CC50 = > 10 µM

Summary: COCCOc1ccc2cc1S(=O)(=O)NCCCNc1nc(ncc1-c1ccc(F)c(OC)c1)N2 , Huh-7, CC50 = > 10 µM

Summary: COc1cc(-c2cnc3nc2NCCCNS(=O)(=O)c2cc(ccc2OC)N3)ccc1F , Huh-7, CC50 = > 10 µM

Summary: COc1cc(-c2cnc3nc2NCCCNS(=O)(=O)c2cccc(c2)N3)ccc1Br , Huh-7, CC50 = > 10 µM

Summary: COc1c(F)ccc(-c2cnc3nc2NCCCNS(=O)(=O)c2cccc(c2)N3)c1F , Huh-7, CC50 = 2.9 µM

Summary: O=C(Nc1ccccc1Cl)c1cnc2ccc(C3CCNCC3)cn12 , Huh-7, CC50 = > 10 µM

Summary: O=S1(=O)NCCCNc2nc(ncc2-c2ccc(Cl)c(Cl)c2)Nc2cccc1c2 , Huh-7, CC50 = > 10 µM

Summary: COc1cc(-c2cnc3nc2NCCCNS(=O)(=O)c2cc(ccc2O)N3)ccc1F , Huh-7, CC50 = > 10 µM

Summary: COc1cc(-c2cnc3nc2NCCCNS(=O)(=O)c2cccc(c2)N3)ccc1F , Huh-7, CC50 = > 10 µM

---

List of deltaTm tested on Fibroblast growth factor receptor 2 (Homo sapiens).
Lab book: enter the figure in K, no units written.

COC(=O)COc1ccc2cc1S(=O)(=O)NCCCNc1nc(ncc1-c1ccc(F)c(OC)c1)N2 = 1.3
COc1cc(-c2cnc3nc2NCCCNS(=O)(=O)c2cccc(c2)N3)ccc1Br = 2.4
CSc1cc(-c2cnc3nc2NCCCNS(=O)(=O)c2cccc(c2)N3)ccc1F = 4.1

Summary: COc1cc(-c2cnc3nc2NCCCNS(=O)(=O)c2cc(ccc2OCC(N)=O)N3)ccc1F , Fibroblast growth factor receptor 2 (Homo sapiens), deltaTm = 1.5

Summary: COc1cc(-c2cnc3nc2NCCCNS(=O)(=O)c2cccc(c2)N3)cc(OC)c1OC , Fibroblast growth factor receptor 2 (Homo sapiens), deltaTm = 1.2

Summary: COc1cc(-c2cnc3nc2NCCCNS(=O)(=O)c2cccc(c2)N3)ccc1C#N , Fibroblast growth factor receptor 2 (Homo sapiens), deltaTm = 1.7

Summary: COc1cc(-c2cnc3nc2NCCCNS(=O)(=O)c2cccc(c2)N3)ccc1F , Fibroblast growth factor receptor 2 (Homo sapiens), deltaTm = 4.4

---

- STUDY_SYSTEM: Fibroblast growth factor receptor 1 (Homo sapiens, UniProt P11362)
- Sequence (P11362 22-822 limits assumed): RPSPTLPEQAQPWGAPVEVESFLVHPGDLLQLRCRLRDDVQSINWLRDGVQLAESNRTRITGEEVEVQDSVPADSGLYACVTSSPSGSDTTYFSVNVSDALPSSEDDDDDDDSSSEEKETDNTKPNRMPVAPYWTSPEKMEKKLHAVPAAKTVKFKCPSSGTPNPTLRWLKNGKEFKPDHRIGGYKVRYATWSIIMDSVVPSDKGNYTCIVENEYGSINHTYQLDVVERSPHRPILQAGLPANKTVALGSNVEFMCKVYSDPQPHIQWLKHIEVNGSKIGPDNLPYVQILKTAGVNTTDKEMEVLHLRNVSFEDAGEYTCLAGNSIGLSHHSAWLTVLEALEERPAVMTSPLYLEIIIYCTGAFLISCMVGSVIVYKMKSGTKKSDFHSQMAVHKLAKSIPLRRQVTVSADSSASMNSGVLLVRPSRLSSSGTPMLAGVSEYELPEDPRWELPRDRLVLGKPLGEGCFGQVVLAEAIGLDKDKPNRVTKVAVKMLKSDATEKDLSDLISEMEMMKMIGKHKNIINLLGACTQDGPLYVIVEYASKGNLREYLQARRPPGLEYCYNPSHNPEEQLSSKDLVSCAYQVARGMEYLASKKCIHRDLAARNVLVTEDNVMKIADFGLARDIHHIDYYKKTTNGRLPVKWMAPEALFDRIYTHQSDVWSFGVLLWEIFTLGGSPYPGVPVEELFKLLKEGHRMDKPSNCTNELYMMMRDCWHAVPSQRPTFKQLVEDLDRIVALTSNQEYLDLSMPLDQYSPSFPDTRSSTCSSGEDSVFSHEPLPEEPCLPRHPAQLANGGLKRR
Threshold-based label: deltaTm under 2 K gives 1 (yes), deltaTm not under 2 K gives 0 (no).

COc1cc(-c2cnc3nc2NCCCNS(=O)(=O)c2cccc(c2)N3)cc(OC)c1OC = 1 (yes)
COc1cc(-c2cnc3nc2NCCCNS(=O)(=O)c2cc(ccc2-c2ccc(O)cc2)N3)ccc1F = 0 (no)
COc1cc(-c2cnc3nc2NCCCNS(=O)(=O)c2cccc(c2)N3)cc(C(F)(F)F)c1 = 0 (no)
O=S1(=O)NCCCNc2nc(ncc2-c2cc(Cl)c(F)cc2F)Nc2cccc1c2 = 0 (no)
COc1cc(-c2cnc3nc2NCCCNS(=O)(=O)c2cc(ccc2OCC(N)=O)N3)ccc1F = 1 (yes)
COc1cc(-c2cnc3nc2NCCCNS(=O)(=O)c2cccc(c2)N3)cc(F)c1F = 0 (no)
COc1cc(-c2cnc3nc2NCCCNS(=O)(=O)c2cccc(c2)N3)c(F)cc1Cl = 0 (no)
O=S1(=O)NCCCNc2nc(ncc2-c2ccc(F)c(C(F)(F)F)c2)Nc2cccc1c2 = 1 (yes)

Then there is this compound:
Say whether its deltaTm is strictly beneath 2 K. Entry: Cc1cc(Cl)c(Cl)cc1-c1cnc2nc1NCCCNS(=O)(=O)c1cccc(c1)N2
0 (no)
